Hello, the source for this data is the RNAGym collection of RNA variant scans (doi:10.1073/pnas.2313332121), in case you need it.

Entries annotated with measured polymerase ribozyme fitness (log ratio)
B1: TPR t1 (parent)
chain: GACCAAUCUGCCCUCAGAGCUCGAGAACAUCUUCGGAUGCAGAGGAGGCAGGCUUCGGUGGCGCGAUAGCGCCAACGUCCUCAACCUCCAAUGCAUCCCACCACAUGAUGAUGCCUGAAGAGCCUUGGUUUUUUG

Variants of: B1
measurementProtocol: polymerase ribozyme fitness, log enrichment relative to wild type (log ratio); higher = more active; in vitro selection for triplet polymerase activity
Keep it simple and answer with nothing but the number.

{"mutantName": "G10C A46C C101A C123G U130A", "reported": -1.67}
{"mutantName": "A46U G110U G120C G122A", "reported": -5.9}
{"mutantName": "A6G C115A", "reported": 0.525}
{"mutantName": "G39U G60A C76G", "reported": -3.27}

IN: So what does the record say about polymerase ribozyme fitness (log ratio) for C28A A66C A111U C115G ?
OUT: -6.53

IN: Need polymerase ribozyme fitness (log ratio) of U7A G60C C72U , thanks.
OUT: 0.796

IN: Please report the recorded polymerase ribozyme fitness (log ratio) for G61A C73A G127A .
OUT: -1.74
